Test: Study VX-222-102 Part A: VX-222 for 3 days in HCV infected subjects (PK, safety)
Format: in vivo, human
Details: human, in vivo, 250 mg, 250 mg b.i.d., Day 3, HCV infected subjects; read-out: AUC0-12 hr Geometric Mean
quantity_kind: AUC(0-t) (ng·h/mL)
Answers are plain numbers, in ng·h/mL.

Name the recorded AUC(0-t) of the compound listed here: CC1CCC(C(=O)N(c2cc(C#CC(C)(C)C)sc2C(=O)O)C2CCC(O)CC2)CC1 (stereo not shown) [VX-222]
19500

====

Assay: Study VX-222-102 Part A: VX-222 for 3 days in HCV infected subjects (PK, safety)
Assay type: in vivo, human
Conditions: human, in vivo; 750 mg b.i.d., Day 3, HCV infected subjects; read-out: T1/2 Arithmetic Mean (converted)
quantity_kind: half-life (h)
Give bare numbers, in h.

Name the recorded half-life of the compound listed here: CC1CCC(C(=O)N(c2cc(C#CC(C)(C)C)sc2C(=O)O)C2CCC(O)CC2)CC1 (stereo not shown) [VX-222]
3.5
